Reference for the values: patent US11957761B2

assay: Pharmacokinetics in Beagle dogs, single s.c. and i.v. injection (Example 5); type: in vivo; conditions: male, plasma, 200 ug/kg, dog, SC

# Compound, Cmax
rows = [
    ("CC[C@H](C)[C@@H]1NC(=O)[C@H](CC(=O)O)NC(=O)[C@H](CC(C)C)NC(=O)c2ccc(-c3ccc(N4CCN(C(=O)c5ccccc5-c5ccccc5C(=O)N5CCN(c6ccc(-c7ccc8cc7CNC(=O)[C@@H]7CCCN7[C@H](C(=O)NC(C)(C)C)[C@H](C)NC(=O)[C@H]([C@@H](C)CC)NC(=O)[C@H](CC(=O)O)NC(=O)[C@H](CC(C)C)NC8=O)cc6)CC5)CC4)cc3)c(c2)CNC(=O)[C@@H]2CCCN2[C@H](C(=O)NC(C)(C)C)[C@H](C)NC1=O [Compound 1]", "127 nM"),
]
